Listed below: EC50 values for each entry.
subject-of-test: PBP3 from Escherichia coli (K-12) (Escherichia coli)
Sequence (P0AD68 1-577): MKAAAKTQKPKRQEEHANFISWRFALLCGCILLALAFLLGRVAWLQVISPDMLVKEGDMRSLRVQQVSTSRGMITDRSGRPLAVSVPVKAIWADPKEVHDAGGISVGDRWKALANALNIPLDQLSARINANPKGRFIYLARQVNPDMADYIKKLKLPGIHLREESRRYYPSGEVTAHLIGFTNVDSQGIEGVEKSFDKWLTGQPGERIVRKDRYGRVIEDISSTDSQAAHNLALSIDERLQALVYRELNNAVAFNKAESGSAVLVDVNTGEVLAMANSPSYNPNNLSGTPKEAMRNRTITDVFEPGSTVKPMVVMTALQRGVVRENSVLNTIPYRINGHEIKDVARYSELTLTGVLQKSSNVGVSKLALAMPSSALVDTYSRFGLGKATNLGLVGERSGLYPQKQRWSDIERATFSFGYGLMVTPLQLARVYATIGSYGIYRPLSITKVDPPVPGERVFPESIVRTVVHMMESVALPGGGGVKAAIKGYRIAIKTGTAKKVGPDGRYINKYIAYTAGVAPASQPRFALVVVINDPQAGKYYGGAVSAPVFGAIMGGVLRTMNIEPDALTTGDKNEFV
protocol-text: Bocillin-FL fluorescence polarization competition binding, E. coli PBP3

Solved entries:
{"compound": "O=C(NCCCN1CCN(C(=O)NC(C(=O)N[C@H]2Cc3ccc(F)c(C(=O)O)c3OB2O)c2cc(F)c(O)c(O)c2Cl)C(=O)C1=O)c1ccc(O)c(F)c1Cl (some centres unmarked)", "subject-of-test": "PBP3 from Escherichia coli (K-12) (Escherichia coli)", "result": "< 10 µM"}
{"compound": "CS(=O)(=O)N1CCN(C(=O)NC(C(=O)N[C@H]2Cc3cccc(C(=O)O)c3OB2O)c2ccc(P(=O)(O)O)c(Cl)c2)C1=O (some centres unmarked)", "subject-of-test": "PBP3 from Escherichia coli (K-12) (Escherichia coli)", "result": "< 10 µM"}
{"compound": "O=C(NCCS(=O)(=O)N1CCN(C(=O)N[C@@H](C(=O)N[C@H]2Cc3ccc(F)c(C(=O)O)c3OB2O)c2cc(F)c(O)c(O)c2Cl)C1=O)c1ccc(O)cc1", "subject-of-test": "PBP3 from Escherichia coli (K-12) (Escherichia coli)", "result": "< 10 µM"}
{"compound": "O=C1CC[C@H](C(=O)NC(C(=O)N[C@H]2Cc3cccc(C(=O)O)c3OB2O)c2ccc(P(=O)(O)O)cc2)N1 (some centres unmarked)", "subject-of-test": "PBP3 from Escherichia coli (K-12) (Escherichia coli)", "result": "50 to 250 µM"}
{"compound": "O=C(O)c1c(F)ccc2c1OB(O)[C@@H](NC(=O)C(NC(=O)N1CCN(S(=O)(=O)CCNC(=O)[C@@H]3CCCN3)C1=O)c1cc(F)c(O)c(O)c1Cl)C2 (some centres unmarked)", "subject-of-test": "PBP3 from Escherichia coli (K-12) (Escherichia coli)", "result": "10 to 50 µM"}

input: Consider the compound CCN1CCN(C(=O)N[C@@H](C(=O)N[C@H]2Cc3cccc(C(=O)O)c3OB2O)c2ccc(P(C)(=O)O)cc2)C(=O)C1=O (single isomer, unassigned) and give its recorded EC50.
output: < 10 µM

input: Output measured EC50 for this item: O=C(CN1CCN(C(=O)NC(C(=O)N[C@H]2Cc3ccc(F)c(C(=O)O)c3OB2O)c2cc(F)c(O)c(O)c2Cl)C(=O)C1=O)NCc1cccc(O)c1 (some centres unmarked)
output: < 10 µM

input: State its EC50 for this compound: CS(=O)(=O)N1CCN(C(=O)N[C@H](C(=O)N[C@H]2Cc3cccc(C(=O)O)c3OB2O)c2ccc(P(=O)(O)O)cc2)C1=O (single isomer, unassigned)
output: 50 to 250 µM

input: For the compound O=C(NCCN1CCN(C(=O)NC(C(=O)N[C@H]2Cc3ccc(F)c(C(=O)O)c3OB2O)c2cc(F)c(O)c(O)c2Cl)C(=O)C1=O)c1ccncc1 (some centres unmarked) , give its reported EC50.
output: < 10 µM

input: Give a short answer stating reported EC50 for O=C(NCCS(=O)(=O)N1CCN(C(=O)NC(C(=O)N[C@H]2Cc3ccc(F)c(C(=O)O)c3OB2O)c2cc(F)c(O)c(O)c2Cl)C1=O)c1cccc(O)c1 (some centres unmarked) .
output: < 10 µM

input: Recall and state the measured EC50 for O=C(NCCCN1CCN(C(=O)N[C@H](C(=O)N[C@H]2Cc3ccc(F)c(C(=O)O)c3OB2O)c2cc(F)c(O)c(O)c2Cl)C1=O)Nc1ccc(O)cc1 .
output: > 250 µM

input: Note EC50 for the compound shown: O=C(CN1CCN(C(=O)NC(C(=O)N[C@H]2Cc3ccc(F)c(C(=O)O)c3OB2O)c2cc(F)c(O)c(O)c2Cl)C(=O)C1=O)NCc1ccc(O)cc1 (some centres unmarked)
output: < 10 µM

input: Retrieve EC50 measured for CCN1CCN(C(=O)N[C@H](C(=O)N[C@H]2Cc3ccc(F)c(C(=O)O)c3OB2O)c2ccc(P(=O)(O)O)cc2)C(=O)C1=O (single isomer, unassigned) and print it.
output: 50 to 250 µM

input: Name the recorded EC50 of the compound listed here: O=C(NCCCS(=O)(=O)N1CCN(C(=O)N[C@H](C(=O)N[C@H]2Cc3ccc(F)c(C(=O)O)c3OB2O)c2cc(F)c(O)c(O)c2Cl)C1=O)c1cccc(O)c1
output: 50 to 250 µM

input: Given the compound O=C(O)c1cccc2c1OB(O)[C@@H](NC(=O)C(NC(=O)N1CCCNC1=O)c1ccc(P(=O)(O)O)cc1)C2 (some centres unmarked) , write its reported EC50.
output: 10 to 50 µM

input: Given the compound O=C(O)c1c(F)ccc2c1OB(O)[C@@H](NC(=O)C(NC(=O)N1CCN(C3CCN(C(=O)c4cc(O)cc(O)c4)CC3)C(=O)C1=O)c1cc(F)c(O)c(O)c1Cl)C2 (some centres unmarked) , write its reported EC50.
output: < 10 µM

input: Using the record for NC(C(=O)N[C@H]1Cc2ccc(F)c(C(=O)O)c2OB1O)c1ccc(P(=O)(O)O)cc1 (some centres unmarked) , state its measured EC50.
output: > 250 µM

input: Could you please provide reported EC50 for O=C(CN1CCN(C(=O)N[C@@H](C(=O)N[C@H]2Cc3ccc(F)c(C(=O)O)c3OB2O)c2cc(F)c(O)c(O)c2Cl)C(=O)C1=O)NCc1ccncc1 ? Thanks!
output: < 10 µM

input: Return the recorded EC50 value; entry: O=C(O)c1cccc2c1OB(O)[C@@H](NC(=O)C(NC(=O)C1CCCCC1)c1ccc(P(=O)(O)O)cc1)C2 (some centres unmarked)
output: 50 to 250 µM

input: Assign EC50 to the following record: O=C(NCCCN1CCN(C(=O)NC(C(=O)N[C@H]2Cc3ccc(F)c(C(=O)O)c3OB2O)c2cc(F)c(O)c(O)c2Cl)C(=O)C1=O)c1nccs1 (some centres unmarked)
output: < 10 µM

----------
Tested on: E. coli 901C
protocol-text: microbe, parasite or virus in culture
Type: cell-based
test-conditions: Escherichia coli, read-out: MIC E. coli 901C
property-name: MIC

Example compounds with recorded MIC:
{"compound": "O=C(O)c1cccc2c1OB(O)[C@@H](NC(=O)[C@H](NC(=O)c1cnc3sccn3c1=O)c1ccc(P(=O)(O)O)cc1)C2 (single isomer, unassigned)", "property-name": "MIC", "result": "2 to 4 µg/mL"}
{"compound": "CS(=O)(=O)N1CCN(C(=O)N[C@@H](C(=O)N[C@H]2Cc3ccc(F)c(C(=O)O)c3OB2O)c2ccc(P(=O)(O)O)c(F)c2F)C1=O", "property-name": "MIC", "result": "< 1 µg/mL"}
{"compound": "CS(=O)(=O)N1CCC[C@H]1C(=O)N[C@H](C(=O)N[C@H]1Cc2cccc(C(=O)O)c2OB1O)c1ccc(P(=O)(O)O)cc1", "property-name": "MIC", "result": "8 to 16 µg/mL"}
{"compound": "CS(=O)(=O)N1CCN(C(=O)N[C@@H](C(=O)N[C@H]2Cc3cccc(C(=O)O)c3OB2O)c2ccc(P(=O)(O)O)c(F)c2F)C1=O (single isomer, unassigned)", "property-name": "MIC", "result": "< 1 µg/mL"}
{"compound": "CC(=O)N1CCC[C@H]1C(=O)NC(C(=O)N[C@H]1Cc2cccc(C(=O)O)c2OB1O)c1ccc(P(=O)(O)O)cc1 (some centres unmarked)", "property-name": "MIC", "result": "32 to 64 µg/mL"}

input: Tell me its MIC given CS(=O)(=O)N1CCN(C(=O)NC(C(=O)N[C@H]2Cc3cccc(C(=O)O)c3OB2O)c2ccc(P(=O)(O)O)c(F)c2O)C1=O (some centres unmarked) as the entry.
output: < 1 µg/mL

input: Answer with reported MIC of CC(=O)NC(C(=O)N[C@H]1Cc2cccc(C(=O)O)c2OB1O)c1ccc(P(=O)(O)O)cc1 (some centres unmarked)
output: 8 to 16 µg/mL

input: Give recorded MIC. CS(=O)(=O)N1CCN(C(=O)NC(C(=O)N[C@H]2Cc3cccc(C(=O)O)c3OB2O)c2ccc(P(=O)(O)O)c(F)c2)C1=O (some centres unmarked)
output: < 1 µg/mL

input: Read off the recorded MIC for CN1CCC[C@H]1C(=O)NC(C(=O)N[C@H]1Cc2cccc(C(=O)O)c2OB1O)c1ccc(P(=O)(O)O)cc1 (some centres unmarked)
output: 32 to 64 µg/mL

input: Retrieve MIC measured for CS(=O)(=O)N1CCC[C@@H]1C(=O)N[C@@H](C(=O)N[C@H]1Cc2cccc(C(=O)O)c2OB1O)c1ccc(P(=O)(O)O)cc1 and print it.
output: 8 to 16 µg/mL

input: Output measured MIC for this item: O=C(O)c1cccc2c1OB(O)[C@@H](NC(=O)[C@H](NC(=O)N1CCN(Cc3cc(F)c(O)c(O)c3Cl)C(=O)C1=O)c1ccc(P(=O)(O)O)cc1)C2
output: < 1 µg/mL

input: Give reported MIC value for CS(=O)(=O)N1CCN(C(=O)N[C@H](C(=O)N[C@H]2Cc3cccc(C(=O)O)c3OB2O)c2ccc(P(=O)(O)O)cc2)C1=O (single isomer, unassigned)
output: < 1 µg/mL

input: Give reported MIC value for CN1CCN(C(=O)NC(C(=O)N[C@H]2Cc3cccc(C(=O)O)c3OB2O)c2ccc(P(=O)(O)O)cc2)C1=O (some centres unmarked)
output: < 1 µg/mL

input: Return value of MIC for input O=C(O)c1cccc2c1OB(O)[C@@H](NC(=O)[C@H](NC(=O)c1cnc3n(c1=O)CCS3)c1ccc(P(=O)(O)O)cc1)C2 (single isomer, unassigned) , no commentary.
output: 2 to 4 µg/mL
